# assay-explanation: Foam height test, Standard Test Method for Foaming Properties of Surface-Active Agents (ASTM 1173-07)
# Assay type: physicochemical
# protocol-conditions: 10 g/L (1.0 weight %), t = 0 min, 49° C.
measured-property: Foam height at time t = 0 (mm)

Dear colleague, I am looking for the recorded Foam height at time t = 0 of the following compound: CCCCCCCCCCCCOC(=O)CCC[N+](C)(C)CC(O)CS(=O)(=O)[O-] (stereo not drawn) [Example 4]
173

For CCCCCCCCCCCCNC(=O)CCCC[N+](C)(C)CC(O)CS(=O)(=O)[O-] (stereo not drawn) [Example 21] then?
173

For CCCCCCCCCCCCOC(=O)CCC[N+](C)(C)CCCS(=O)(=O)[O-] [Example 5] then?
170

For CCCCCCCCCCCCNC(=O)CCC[N+](C)(C)CCCS(=O)(=O)[O-] [Example 14] then?
157

For CCCCCCCCCCCCNC(=O)CCC[N+](C)(C)CC(O)CS(=O)(=O)[O-] (stereo not drawn) [Example 12] then?
182

For CCCCCCCCCCCCOC(=O)CCCC[N+](C)(C)CC(O)CS(=O)(=O)[O-] (stereo not drawn) [Example 9] then?
195
